Recorded tube area decrease values for a group of compounds are listed next.
Assay: inhibition of endothelial tube formation, primary screen, imaging, VEGF stimulated, CD31 staining, tube area, NPC library (AID 1117340)
Conditions: VEGF-stimulated ADSC/ECFC co-culture, at 10 µM, active compounds read high
Property Measured: tube area decrease (%)

| Compound | Value |
| --- | --- |
| Nc1ccc(C(=O)OCC(O)CO)cc1 (stereo not given) | -15.4 |
| COc1ccc([C@@H]2CC(=O)c3c(O)cc(O[C@@H]4O[C@H](CO[C@@H]5O[C@@H](C)[C@H](O)[C@@H](O)[C@@H]5O)[C@@H](O)[C@H](O)[C@@H]4O)cc3O2)cc1O | -4.7 |
| C=C(CC)C(=O)c1ccc(OCC(=O)O)c(Cl)c1Cl | 52.6 |
| Cc1onc(-c2c(Cl)cccc2Cl)c1C(=O)Cl | 54.1 |
| O=C(O)c1[nH]n(-c2ccc(S(=O)(=O)O)cc2)c(=O)c1N=Nc1ccc(S(=O)(=O)O)cc1 | -8.4 |

###

Test: growth inhibition of GSK3B-pretreated HCT116 cells – cell-based, CellTiter-Glo, 0.2 to 20 µM (AID 1117336)
Conditions: HCT116 viability after GSK3B inhibitor, at 20 µM, active compounds read high
The recorded viability decrease of each item maps onto one of these classes: 0: < -10%; 1: ≥ -10% and < 40%; 2: ≥ 40%

| Molecule | Class |
| --- | --- |
| O=C(N/N=C/c1ccccc1O)c1ccncc1 | 2 |
| OC(C#CCN1CCCC1)(c1ccccc1)c1ccccc1 | 1 |
| NC[C@H]1O[C@H](O[C@H]2[C@H](O[C@@H]3O[C@H](CO)[C@@H](O)[C@H]3O)C(O)[C@H](N)C[C@@H]2N)[C@H](N)[C@@H](O)[C@@H]1O (some centres undefined) | 0 |
| C/C(=C(\CCO)SS/C(CCO)=C(\C)N(C=O)Cc1cnc(C)nc1N)N(C=O)Cc1cnc(C)nc1N | 0 |
| CC1=C(CC(=O)O)c2cc(F)ccc2/C1=C\c1ccc(S(C)=O)cc1 (centres undefined) | 0 |
| COc1ccnc2c1CCCCC2S(=O)c1nc2ccccc2[nH]1 (centres undefined) | 0 |
| CNC(=O)CN(CCN(CCN(CC(=O)[O-])CC(=O)NC)CC(=O)[O-])CC(=O)[O-].O.[Gd+3] | 1 |
| CC12CCC(C[N+](C)(CCC[N+](C)(C)C)C1)C2(C)C (centres undefined) | 1 |
| CC[C@H](C)C(=O)O[C@H]1C[C@@H](C)C=C2C=C[C@H](C)[C@H](CC[C@@H]3C[C@@H](O)CC(=O)O3)[C@H]21 | 2 |

###

Assay: glucagon-like peptide 1 release enhancers, primary assay, NCI-H716 cell line, NPC library (AID 1117341); note: reference of the scale not given here
Settings: NCI-H716 cells, at 10 µM, active compounds read high
Positions of bridges follow the written chain, without caps; N, C: chain ends. Non-standard residues stand in square brackets, D forms with d. Residues, ends and D or L forms follow the SMILES beside them. hArg = N=C(N)NCCCC[C@H](N)C(=O)O; Mpa = O=C(O)CCS
Recorded GLP1 secretion stimulation values for a group of molecules are listed next.

| Molecule | GLP1 secretion stimulation (%) |
| --- | --- |
| CC1CN(c2cc3c(cc2F)c(=O)c(C(=O)O)cn3-c2ccc(F)cc2F)CCN1 (stereo unspecified) | -0.9 |
| NC(=O)[C@@H]1CSSCCC(=O)N[C@@H](CCCCN=C(N)N)C(=O)NCC(=O)N[C@@H](CC(=O)O)C(=O)N[C@@H](Cc2c[nH]c3ccccc23)C(=O)N2CCC[C@H]2C(=O)N1 ([Mpa][hArg]GDWPC-NH2; disulfide 1-7) | -2.7 |
| CCOc1c(N2CCOCC2)cnn(C)c1=O | 0.1 |
| C[C@H](CCC(=O)O)[C@H]1CC[C@H]2[C@H]3[C@@H](CC[C@]12C)[C@@]1(C)CC[C@@H](O)C[C@H]1C[C@@H]3O | -1.3 |
| CC1(C)S[C@@H]2[C@H](NC(=O)Cc3ccccc3)C(=O)N2[C@H]1C(=O)O (tested in a mixture with another compound) | -3.4 |
| COC(=O)c1ccc(NC(C)=O)cc1OC | -1.8 |
| O=C(O)c1ccccc1S | -1.4 |
| OC(CCN1CCCCC1)(c1ccccc1)C1CCCCC1 (stereo unspecified) | 3.3 |
| CCCCCCCCCCCCCCCCCC(=O)[O][Al] | -1.2 |
| Cc1ncc(CO)c(CN)c1O | 0.1 |
| Cc1cc(=O)oc2cc(O[C@@H]3SC[C@@H](O)[C@H](O)[C@H]3O)ccc12 | 3.6 |
| O=C1c2c(O)ccc(O)c2C(=O)c2c(NCCNCCO)ccc(NCCNCCO)c21 | -17.3 |
| CCS(=O)(=O)CCn1c([N+](=O)[O-])cnc1C | 2.3 |
| CN(C)c1ccc(C(=C2C=CC(=[N+](C)C)C=C2)c2ccccc2)cc1 | 0.7 |
| CCCCCCCCCCCCCCCCCCCCCC(=O)Nc1ccn([C@@H]2O[C@H](CO)[C@@H](O)[C@H]2O)c(=O)n1 | -1.6 |
| Cc1ccc(C(C)OC(=O)C2(C)CCC(C(=O)O)C2(C)C)cc1 (stereo unspecified) | 0.6 |
| C[C@@H](O)[C@H]1C(=O)N2C(C(=O)O)=C([C@H]3CCCO3)S[C@H]12 | 1.1 |
| CC[C@H]1CN2CCc3cc(OC)c(OC)cc3[C@@H]2C[C@@H]1C[C@H]1NCCc2cc(OC)c(OC)cc21 | 2.4 |
| CCCCCCCCCCOCC(O)CN (stereo unspecified) | -3.3 |
| Cc1ncc(COP(=O)(O)O)c(C=O)c1O | -1.1 |
| Cc1coc2ccccc2c1=O | 3.1 |
